Each recorded value in this set is attributed to PubChem BioAssay AID1963967.

Items are presented alongside their recorded IC50.
- Tested on: 855422-203-R-J1-PDC spheroids with HUVEC/MSC, viability
- Experiment Description: Anticancer human tumor 855422-203-R-J1-PDC patient-derived bladder carcinoma cell line growth inhibition [PI3K]
- Setup Conditions: curve of first compound; second compound 0.316 µM
Numbers only here, please. The scale is nM.

Before answering, review these 3 worked examples.
Compound	Tested System	Quantity Unit	Result Value
Cn1ncc(Cl)c1-c1cc(C(=O)NC(CN)Cc2cccc(F)c2)sc1Cl (stereo unspecified) + CC(Nc1ncnc2nc[nH]c12)c1cc2cccc(Cl)c2c(=O)n1-c1ccccc1	855422-203-R-J1-PDC spheroids with HUVEC/MSC, viability	nM	634
CC(Cn1ccc(-c2ccc(C#N)c(Cl)c2)n1)NC(=O)c1cc(C(C)O)[nH]n1 (stereo unspecified) + CC(Nc1ccc2c(c1)OCCn1cc(N3C(=O)OCC3C(F)F)nc1-2)C(N)=O	855422-203-R-J1-PDC spheroids with HUVEC/MSC, viability	nM	1670
CCCS(=O)(=O)Nc1ccc(F)c(C(=O)c2c[nH]c3ncc(-c4ccc(Cl)cc4)cc23)c1F + CC(Nc1ccc2c(c1)OCCn1cc(N3C(=O)OCC3C(F)F)nc1-2)C(N)=O	855422-203-R-J1-PDC spheroids with HUVEC/MSC, viability	nM	981

Short answer for CCCS(=O)(=O)Nc1ccc(F)c(C(=O)c2c[nH]c3ncc(-c4ccc(Cl)cc4)cc23)c1F + Cc1nc(NC(=O)N2CCCC2C(N)=O)sc1-c1ccnc(C(C)(C)C(F)(F)F)c1 : IC50 was 4420

Short answer for CC(=O)c1c(C)c2cnc(Nc3ccc(N4CCNCC4)cn3)nc2n(C2CCCC2)c1=O + CC(Nc1ccc2c(c1)OCCn1cc(N3C(=O)OCC3C(F)F)nc1-2)C(N)=O : IC50 was 10.6

Short answer for Cn1ncc(Cl)c1-c1cc(C(=O)NC(CN)Cc2cccc(F)c2)sc1Cl (stereo unspecified) + Cc1nc(NC(=O)N2CCCC2C(N)=O)sc1-c1ccnc(C(C)(C)C(F)(F)F)c1 : IC50 was 893

* * *

- System: 855422-203-R-J1-PDC spheroids with HUVEC/MSC, viability
- Experiment Description: Anticancer human tumor 855422-203-R-J1-PDC cell line growth inhibition [PI3K];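 further: agents incubated with spheroids for one week before read-out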;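 on viability, T/C: 100% = DMSO vehicle-treated control wells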
- Setup Conditions: second compound 0.316 µM; first compound 1 µM; stronger effect = lower value
Define the label as 1 (yes) when viability, T/C is strictly less than 10% and as 0 (no) in all remaining cases.

Compound	Tested System	Class Label
CNC(=O)c1ccc(N2C(=S)N(c3ccc(C#N)c(C(F)(F)F)c3)C(=O)C2(C)C)cc1F + COc1c(OCCCN2CCOCC2)ccc2c3n(c(=NC(=O)c4cnc(N)nc4)nc12)CCN3	855422-203-R-J1-PDC spheroids with HUVEC/MSC, viability	0 (no)
CNC(=O)c1ccc(N2C(=S)N(c3ccc(C#N)c(C(F)(F)F)c3)C(=O)C2(C)C)cc1F + CC(Nc1ccc2c(c1)OCCn1cc(N3C(=O)OCC3C(F)F)nc1-2)C(N)=O	855422-203-R-J1-PDC spheroids with HUVEC/MSC, viability	0 (no)
CCCS(=O)(=O)Nc1ccc(F)c(C(=O)c2c[nH]c3ncc(-c4ccc(Cl)cc4)cc23)c1F + CC(Nc1ncnc2nc[nH]c12)c1cc2cccc(Cl)c2c(=O)n1-c1ccccc1	855422-203-R-J1-PDC spheroids with HUVEC/MSC, viability	0 (no)

(Q) Does this compound meet the criterion viability, T/C < 10%? Cn1ncc(Cl)c1-c1cc(C(=O)NC(CN)Cc2cccc(F)c2)sc1Cl (stereo unspecified) + CC(Nc1ncnc2nc[nH]c12)c1cc2cccc(Cl)c2c(=O)n1-c1ccccc1
(A) 0 (no)

(Q) Does this compound meet the criterion viability, T/C < 10%? CCN1CCN(Cc2ccc(Nc3ncc(F)c(-c4cc(F)c5nc(C)n(C(C)C)c5c4)n3)nc2)CC1 + COc1c(OCCCN2CCOCC2)ccc2c3n(c(=NC(=O)c4cnc(N)nc4)nc12)CCN3
(A) 1 (yes)

* * *

- System: 855422-203-R-J1-PDC spheroids with HUVEC/MSC, viability
- Experiment Description: Anticancer human tumor 855422-203-R-J1-PDC cell line growth inhibition [PI3K];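 further: agents incubated with spheroids for one week before read-out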;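 on viability, T/C: 100% = DMSO vehicle-treated control wells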
- Setup Conditions: second compound 0.0316 µM; first compound 0.0949 µM; stronger effect = lower value
Items are presented alongside their recorded viability, T/C.
Numbers only here, please. The scale is %.

Compound	viability, T/C [%]
Cn1cnc2c(F)c(Nc3ccc(Br)cc3Cl)c(C(=O)NOCCO)cc21 + CC(Nc1ncnc2nc[nH]c12)c1cc2cccc(Cl)c2c(=O)n1-c1ccccc1	114
Cn1cnc2c(F)c(Nc3ccc(Br)cc3Cl)c(C(=O)NOCCO)cc21 + COc1c(OCCCN2CCOCC2)ccc2c3n(c(=NC(=O)c4cnc(N)nc4)nc12)CCN3	60.8
Cn1cnc2c(F)c(Nc3ccc(Br)cc3Cl)c(C(=O)NOCCO)cc21 + Cc1nc(NC(=O)N2CCCC2C(N)=O)sc1-c1ccnc(C(C)(C)C(F)(F)F)c1	116

Then this compound:
Lab entry: 855422-203-R-J1-PDC spheroids with HUVEC/MSC, viability assay, compound Cn1cnc2c(F)c(Nc3ccc(Br)cc3Cl)c(C(=O)NOCCO)cc21 + CC(Nc1ccc2c(c1)OCCn1cc(N3C(=O)OCC3C(F)F)nc1-2)C(N)=O , viability, T/C = 91.5

* * *

Items are presented alongside their recorded viability, T/C.
- Test system: 855422-203-R-J1-PDC spheroids with HUVEC/MSC, viability
- Experiment Description: Anticancer human tumor 855422-203-R-J1-PDC cell line growth inhibition [PI3K];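 further: agents incubated with spheroids for one week before read-out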;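 on viability, T/C: 100% = DMSO vehicle-treated control wells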
- Setup Conditions: second compound 0.1 µM; first compound 0.1 µM; stronger effect = lower value

Before answering, review these 3 worked examples.
Compound	Result Value
C#Cc1c(F)ccc2cc(O)cc(-c3ncc4c(N5CC6CCC(C5)N6)nc(OCC56CCCN5CC(F)C6)nc4c3F)c12 (centres undefined) + Cc1nc(NC(=O)N2CCCC2C(N)=O)sc1-c1ccnc(C(C)(C)C(F)(F)F)c1	88.6%
CC(C)n1nc(-c2ccc3oc(N)nc3c2)c2c(N)ncnc21 + Cc1nc(NC(=O)N2CCCC2C(N)=O)sc1-c1ccnc(C(C)(C)C(F)(F)F)c1	14.7%
C=CC(=O)N1CCN(c2nc(=O)n(-c3c(C)ccnc3C(C)C)c3nc(-c4c(O)cccc4F)c(F)cc23)C(C)C1 (centres undefined) + Cc1nc(NC(=O)N2CCCC2C(N)=O)sc1-c1ccnc(C(C)(C)C(F)(F)F)c1	86.8%

Short answer for CCN1CCN(Cc2ccc(Nc3ncc(F)c(-c4cc(F)c5nc(C)n(C(C)C)c5c4)n3)nc2)CC1 + CC(Nc1ncnc2nc[nH]c12)c1cc2cccc(Cl)c2c(=O)n1-c1ccccc1 : viability, T/C was 86.5%

Short answer for Cn1ncc(Cl)c1-c1cc(C(=O)NC(CN)Cc2cccc(F)c2)sc1Cl (centres undefined) + CC(Nc1ncnc2nc[nH]c12)c1cc2cccc(Cl)c2c(=O)n1-c1ccccc1 : viability, T/C was 84.5%

Short answer for CCN1CCN(Cc2ccc(Nc3ncc(F)c(-c4cc(F)c5nc(C)n(C(C)C)c5c4)n3)nc2)CC1 + COc1c(OCCCN2CCOCC2)ccc2c3n(c(=NC(=O)c4cnc(N)nc4)nc12)CCN3 : viability, T/C was 15.6%

Short answer for C[C@@H](NC(=O)c1ncnc(N)c1Cl)c1ncc(C(=O)Nc2cc(C(F)(F)F)c(Cl)cn2)s1 + Cc1nc(NC(=O)N2CCCC2C(N)=O)sc1-c1ccnc(C(C)(C)C(F)(F)F)c1 : viability, T/C was 86.8%

Short answer for CC1(C)CCC(CN2CCN(c3ccc(C(=O)NS(=O)(=O)c4ccc(NCC5CCOCC5)c([N+](=O)[O-])c4)c(Oc4cnc5[nH]ccc5c4)c3)CC2)=C(c2ccc(Cl)cc2)C1 + CC(Nc1ccc2c(c1)OCCn1cc(N3C(=O)OCC3C(F)F)nc1-2)C(N)=O : viability, T/C was 70.7%

Short answer for CCN1CCN(Cc2ccc(Nc3ncc(F)c(-c4cc(F)c5nc(C)n(C(C)C)c5c4)n3)nc2)CC1 + Cc1nc(NC(=O)N2CCCC2C(N)=O)sc1-c1ccnc(C(C)(C)C(F)(F)F)c1 : viability, T/C was 67.7%

* * *

- System: 855422-203-R-J1-PDC spheroids with HUVEC/MSC, viability
- Experiment Description: Anticancer human tumor 855422-203-R-J1-PDC cell line growth inhibition [PI3K]; active means viability on the fitted dose curve at most 10% of control; inactive means the rest;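 further: agents incubated with spheroids for one week before read-out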
- Setup Conditions: second compound 1 µM; first compound 10 µM
Reply using exactly one outcome from active, inactive

Here are 2 molecules together with their reported answers.
Molecule	Class Label
Cn1ncc(Cl)c1-c1cc(C(=O)NC(CN)Cc2cccc(F)c2)sc1Cl (stereo not given) + CC(Nc1ncnc2nc[nH]c12)c1cc2cccc(Cl)c2c(=O)n1-c1ccccc1	active
C[C@@H](NC(=O)c1ncnc(N)c1Cl)c1ncc(C(=O)Nc2cc(C(F)(F)F)c(Cl)cn2)s1 + Cc1nc(NC(=O)N2CCCC2C(N)=O)sc1-c1ccnc(C(C)(C)C(F)(F)F)c1	inactive

(Q) Please indicate how the test categorized C#Cc1c(F)ccc2cc(O)cc(-c3ncc4c(N5CC6CCC(C5)N6)nc(OCC56CCCN5CC(F)C6)nc4c3F)c12 (stereo not given) + CC(Nc1ccc2c(c1)OCCn1cc(N3C(=O)OCC3C(F)F)nc1-2)C(N)=O .
(A) inactive

(Q) Please indicate how the test categorized C[C@@H](NC(=O)c1ncnc(N)c1Cl)c1ncc(C(=O)Nc2cc(C(F)(F)F)c(Cl)cn2)s1 + COc1c(OCCCN2CCOCC2)ccc2c3n(c(=NC(=O)c4cnc(N)nc4)nc12)CCN3 .
(A) active

(Q) Please indicate how the test categorized CC1(C)CCC(CN2CCN(c3ccc(C(=O)NS(=O)(=O)c4ccc(NCC5CCOCC5)c([N+](=O)[O-])c4)c(Oc4cnc5[nH]ccc5c4)c3)CC2)=C(c2ccc(Cl)cc2)C1 + CC(Nc1ncnc2nc[nH]c12)c1cc2cccc(Cl)c2c(=O)n1-c1ccccc1 .
(A) active
